Values were extracted from patent US20030068615A1.

Recorded radioactive counts recorded in twenty minutes for the following sequences
target: HIV-1LAI envelope gp120 (Human immunodeficiency virus type 1 group M subtype B, UniProt P03377); format: binding; conditions: CXCR4 18-mer scan; empty control 412
measurement_name: radioactive counts recorded in twenty minutes

>>> observed("GLVILVMGYQKKLRSMTD [CXCR4 segment 57-74]")
"569 counts"
>>> observed("IIISKLSHSKGHQKRKAL")
"569 counts"
>>> observed("SIYTSDNYTEEMGSGDYD [CXCR4 segment 5-22]")
"483 counts"
>>> observed("LSKGKRGGHSSVSTESES")
"597 counts"
>>> observed("ILLEIIKQGCEFENTVHK [CXCR4 segment 265-282]")
"529 counts"
>>> observed("RLHLSVADLLFVITLPFW [CXCR4 segment 77-94]")
"548 counts"
>>> observed("LYAFLGAKFKTSAQHALT [CXCR4 segment 301-318]")
"568 counts"
>>> observed("LNPILYAFLGAKFKTSAQ [CXCR4 segment 297-314]")
"686 counts"
>>> observed("FLTGIVGNGLVILVMGYQ [CXCR4 segment 49-66]")
"658 counts"
>>> observed("NANFNKIFLPTIYSIIFL [CXCR4 segment 33-50]")
"585 counts"
>>> observed("GSGDYDSMKEPCFREENA [CXCR4 segment 17-34]")
"384 counts"
>>> observed("VVFQFQHIMVGLILPGIV")
"1001 counts"
>>> observed("DLWVVVFQFQHIMVGLIL [CXCR4 segment 193-210]")
"834 counts"
>>> observed("HSSVSTESESSSFHSS")
"515 counts"
>>> observed("ENTVHKWISITEALAFFH [CXCR4 segment 277-294]")
"727 counts"
>>> observed("ITLPFWAVDAVANWYFGN [CXCR4 segment 89-106]")
"542 counts"
>>> observed("LGAKFKTSAQHALTSVSR")
"612 counts"
>>> observed("ATNSQRPRKLLAEKVVYV")
"490 counts"
>>> observed("MEGISIYTSDNYTEEMGS")
"3003 counts"
>>> observed("ILPGIVILSCYCIIISKL [CXCR4 segment 209-226]")
"604 counts"
>>> observed("HVIYTVNLYSSVLILAFI [CXCR4 segment 113-130]")
"530 counts"
>>> observed("EKVVYVGVWIPALLLTIP [CXCR4 segment 153-170]")
"559 counts"
>>> observed("AIVHATNSQRPRKLLAEK [CXCR4 segment 137-154]")
"485 counts"
>>> observed("TVILILAFFACWLPYYIG")
"735 counts"
>>> observed("LPTIYSIIFLTGIVGNGL [CXCR4 segment 41-58]")
"530 counts"
>>> observed("FACWLPYYIGISIDSFIL [CXCR4 segment 249-266]")
"614 counts"
>>> observed("GNFLCKAVHVIYTVNLYS")
"643 counts"
>>> observed("TDKYRLHLSVADLLFVIT [CXCR4 segment 73-90]")
"504 counts"
>>> observed("DDRYICDRFYPNDLWVVV")
"537 counts"
>>> observed("SDNYTEEMGSGDYDSMKE [CXCR4 segment 9-26]")
"455 counts"
>>> observed("NKIFLPTIYSIIFLTGIV [CXCR4 segment 37-54]")
"550 counts"
>>> observed("ALAFFHCCLNPILYAFLG [CXCR4 segment 289-306]")
"593 counts"
>>> observed("TEEMGSGDYDSMKEPCFR [CXCR4 segment 13-30]")
"453 counts"
>>> observed("FKTSAQHALTSVSRGSSL")
"585 counts"
>>> observed("MVGLILPGIVILSCYCII [CXCR4 segment 205-222]")
"579 counts"
>>> observed("IIKQGCEFENTVEKWISI [CXCR4 segment 269-286]")
"518 counts"
>>> observed("LPYYIGISIDSFILLEII")
"851 counts"
>>> observed("HKWISITEALAFFHCCLN [CXCR4 segment 281-298]")
"575 counts"
>>> observed("KLSHSKGHQKRKALKTTV [CXCR4 segment 225-242]")
"542 counts"
>>> observed("ALKTTVILILAFFACWLP [CXCR4 segment 237-254]")
"673 counts"
>>> observed("ILAFFACWLPYYIGISID [CXCR4 segment 245-262]")
"596 counts"
>>> observed("DAVANWYFGNFLCKAVHV")
"524 counts"
>>> observed("LLLTIPDFIFANVSEADD")
"1418 counts"
>>> observed("LRSMTDKYRLHLSVADLL [CXCR4 segment 69-86]")
"572 counts"
>>> observed("SLKILSKGKRGGHSSVST [CXCR4 segment 325-342]")
"697 counts"
>>> observed("VSEADDRYICDRFYPNDL [CXCR4 segment 177-194]")
"569 counts"
>>> observed("LVMGYQKKLRSMTDKYRL [CXCR4 segment 61-78]")
"517 counts"
>>> observed("SKGHQKRKALKTTVILIL [CXCR4 segment 229-246]")
"552 counts"
>>> observed("YQKKLRSMTDKYRLHLSV [CXCR4 segment 65-82]")
"511 counts"
>>> observed("FREENANFNKIFLPTIYS [CXCR4 segment 29-46]")
"463 counts"
>>> observed("KEPCFREENANFNKIFLP [CXCR4 segment 25-42]")
"664 counts"
